Parameter: ratio. Scope: all listed entries.
Organism: Rattus norvegicus
Experiment: Ratio of ED50 for antiallodynic activity in rat assessed as protection against spinal nerve ligation-induced neuropathic pain to ED50 for antiepileptic activity in rat by maximal electroshock-induced seizures assay
Format: functional

> print(dat)
                                   molecule  endpoint.value
1  CCC(C)C(CC)C(N)=O (stereo unspecified) [VALNOCTAMIDE]            0.56
2                       CC(C)C(C(N)=O)C(C)C            0.88
3                     CC(C)(C)CC(=O)NC(N)=O            0.86

Query block: Dear colleague, please send me the reported ratio for CCCC(CCC)C(N)=O [VALPROMIDE] when you can.
Result block: 0.52

Query block: Dear colleague, please send me the reported ratio for CCCC(C(N)=O)C(C)C (stereo unspecified) when you can.
Result block: 0.52

Query block: Dear colleague, please send me the reported ratio for CCC(C)C(CC)C(=O)NC(N)=O (stereo unspecified) [CAPURIDE] when you can.
Result block: 0.49
